Below, each entry is listed with its recorded koff.
Target: T1, human p40-His (human, UniProt P29460 23-328)
T1 construct: Made by Akeso Biopharma; construct limits and tag not described; also called human IL-12/IL-23 p40 protein domain; human IL-12/IL-23 p40; not shown: His tag
T1 sequence (looked up): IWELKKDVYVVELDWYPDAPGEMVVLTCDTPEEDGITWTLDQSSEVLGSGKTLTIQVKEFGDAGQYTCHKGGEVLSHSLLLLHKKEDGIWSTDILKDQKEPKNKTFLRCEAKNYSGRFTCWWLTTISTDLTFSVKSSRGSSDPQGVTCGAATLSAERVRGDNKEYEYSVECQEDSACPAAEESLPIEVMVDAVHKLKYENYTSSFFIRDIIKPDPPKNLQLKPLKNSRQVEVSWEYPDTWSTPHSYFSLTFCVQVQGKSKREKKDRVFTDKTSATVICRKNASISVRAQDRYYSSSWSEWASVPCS
Test: BLI (Fortebio), p40-His on HIS1K sensor, antibody 5-0.31 nM, 37 °C, 1:1 fit
Express it in s⁻¹; write the number only.

# Binder, Quantity, Units, Measured Result
data = [
    ("H5L10 (antibody, human IgG1, kappa, V domains shown, human IgG1 / kappa constant regions; also called humanized antibody H5L10) VH: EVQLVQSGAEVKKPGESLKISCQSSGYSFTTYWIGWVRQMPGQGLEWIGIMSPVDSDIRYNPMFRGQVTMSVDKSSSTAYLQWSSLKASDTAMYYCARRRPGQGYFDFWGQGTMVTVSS VL: EIVLTQSPATLSASPGERATISCRASQSVGSWLAWYQQKPGQAPRSLIYAASNLQSGIPARFSGSGSGTDFTLTISSLEPEDFAVYYCQQYNIYPYTFGQGTRLEIKR", "koff", "s⁻¹", 0.000435),
    ("ustekinumab (antibody, V domains shown) VH: EVQLVQSGAEVKKPGESLKISCKGSGYSFTTYWLGWVRQMPGKGLDWIGIMSPVDSDIRYSPSFQGQVTMSVDKSITTAYLQWNSLKASDTAMYYCARRRPGQGYFDFWGQGTLVTVSS VL: DIQMTQSPSSLSASVGDRVTITCRASQGISSWLAWYQQKPEKAPKSLIYAASSLQSGVPSRFSGSGSGTDFTLTISSLQPEDFATYYCQQYNIYPYTFGQGTKLEIK", "koff", "s⁻¹", 0.000172),
    ("H5L12 (antibody, human IgG1, kappa, V domains shown, human IgG1 / kappa constant regions; also called humanized antibody H5L12) VH: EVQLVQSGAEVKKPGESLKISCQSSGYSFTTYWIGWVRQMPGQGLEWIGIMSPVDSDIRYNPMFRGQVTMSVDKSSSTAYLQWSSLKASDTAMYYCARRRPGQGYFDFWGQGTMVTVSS VL: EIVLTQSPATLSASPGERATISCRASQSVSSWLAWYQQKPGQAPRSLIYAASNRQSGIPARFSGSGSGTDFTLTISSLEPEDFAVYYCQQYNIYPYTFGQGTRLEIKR", "koff", "s⁻¹", 0.000348),
]

Then there is this binder:
Ask | Form field: reported koff of H5L14 (antibody, human IgG1, kappa, V domains shown, human IgG1 / kappa constant regions; also called humanized antibody H5L14) VH: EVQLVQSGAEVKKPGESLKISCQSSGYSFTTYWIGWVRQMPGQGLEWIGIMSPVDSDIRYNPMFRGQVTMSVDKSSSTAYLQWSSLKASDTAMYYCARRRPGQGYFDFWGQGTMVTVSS VL: EIVLTQSPATLSASPGERATISCRASQSVSSWLAWYQQKPGQAPRSLIYAASNLQSGIPARFSGSGSGTDFTLTISSLEPEDFAVYYCQQYNIYPFTFGQGTRLEIKR
Reply | 0.000182
